B1: DnaJ homolog subfamily C member 5, residues 16 to 77; numbered along this chain, Q9H3Z4 (parent)
chain: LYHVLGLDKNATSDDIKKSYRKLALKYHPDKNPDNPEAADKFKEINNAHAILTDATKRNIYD

- Variants of: B1
- assayOverview: abundance fitness (aPCA) (normalised: wild type 0, dead -1); higher = more abundant; growth selection in yeast, the domain comes from the species named
- conditionsUsed: Homo sapiens
Measured abundance fitness determines class: low (below -0.4), medium (-0.4 to below -0.09), high (-0.09 or more)

In: Any idea which band "A39P" is in?
Out: medium

In: Any idea which band "H3I" is in?
Out: low

In: Each variant maps to one class by abundance fitness. Which class for "K18M" ?
Out: high

In: // return the class label for "Y20F"
Out: high

In: Entry "H28G" belongs to which category?
Out: high

In: In plain terms, what class is "D54Y" ?
Out: low

In: Each variant maps to one class by abundance fitness. Which class for "I16G" ?
Out: low

In: Field: class (abundance fitness) — entry: "K18V"
Out: medium

In: Which category does the recorded abundance fitness put "D62N" in?
Out: low

In: The entry to classify is "P29Y" ; which class holds it?
Out: low

In: Would you mind sorting "N46E" into the appropriate category?
Out: high

In: // bin(item) where item = "D15K"
Out: medium

In: Would you mind sorting "I16L" into the appropriate category?
Out: medium

In: Please report the category associated with "N59I" , nothing else.
Out: high

In: Could you tell me which band "L1T" belongs to?
Out: low

In: Bin? "D40H"
Out: high

In: Place this variant in its band: "Y61G"
Out: high

In: Each variant maps to one class by abundance fitness. Which class for "Y2T" ?
Out: medium

In: Please classify: "H3D"
Out: low

In: For "Y20R" , which abundance fitness bin applies?
Out: medium

In: Which band does "K41C" fall in?
Out: low
